experiment: Long-term stability in spiked pooled human plasma; settings: validation standard 2xLLOV
As shown below, each of these molecules has a reported Long-term stability, 2 month, -80°C Accuracy [%] value.
Supply the numeric figure in %, leaving out any unit text.

Below: 2 molecules and their reported Long-term stability, 2 month, -80°C Accuracy [%].
[
  {
    "molecule": "CO[C@@H]1[C@H](N(C)C(=O)c2ccccc2)C[C@H]2O[C@]1(C)n1c3ccccc3c3c4c(c5c6ccccc6n2c5c31)C(=O)NC4 [Midostaurin]",
    "unit.of.measurement": "%",
    "value.measured": 108.5
  },
  {
    "molecule": "CCOc1cc2ncc(C#N)c(Nc3ccc(OCc4ccccn4)c(Cl)c3)c2cc1NC(=O)/C=C/CN(C)C [Neratinib]",
    "unit.of.measurement": "%",
    "value.measured": 94.6
  }
]

Consider the additional molecule presented here.
I have this molecule here, Cc1nc(Nc2ncc(C(=O)Nc3c(C)cccc3Cl)s2)cc(N2CCN(CCO)CC2)n1 [Dasatinib] , and I need its recorded Long-term stability, 2 month, -80°C Accuracy [%].
96.3

====

As shown below, each of these compounds has a reported Long-term stability, 2 month, -20°C Accuracy [%] value.
experiment: Long-term stability in spiked pooled human plasma; details: validation standard ULOV
# number then unit; no other words

Below: 4 compounds and their reported Long-term stability, 2 month, -20°C Accuracy [%].
[
  {
    "compound": "CNC(=O)c1ccc(N2C(=S)N(c3ccc(C#N)c(C(F)(F)F)c3)C(=O)C2(C)C)cc1F [Enzalutamide]",
    "value.measured": "90.8%"
  },
  {
    "compound": "CC(C)(C)c1nc(-c2cccc(NS(=O)(=O)c3c(F)cccc3F)c2F)c(-c2ccnc(N)n2)s1 [Dabrafenib]",
    "value.measured": "97.4%"
  },
  {
    "compound": "CNC(=O)c1cc(Oc2ccc(NC(=O)Nc3ccc(Cl)c(C(F)(F)F)c3)c(F)c2)ccn1 [Regorafenib]",
    "value.measured": "108.5%"
  },
  {
    "compound": "C[C@]12CC[C@H](O)CC1=CC[C@@H]1[C@@H]2CC[C@]2(C)C(c3cccnc3)=CC[C@@H]12 [Abiraterone]",
    "value.measured": "102.5%"
  }
]

Consider the additional compound presented here.
I have this compound here, COc1cc2ncnc(Nc3ccc(F)c(Cl)c3)c2cc1NC(=O)/C=C/CN1CCCCC1 [Dacomitinib] , and I need its recorded Long-term stability, 2 month, -20°C Accuracy [%].
96.3%

====

assay: Freeze-thaw stability in spiked pooled human plasma; type: physicochemical; conditions: validation standard MOV
quantity.name: Freeze-Thaw Accuracy [%] (%)
Supply the numeric figure in %, leaving out any unit text.

[
  {
    "compound": "NC(=O)c1cccc2cn(-c3ccc([C@@H]4CCCNC4)cc3)nc12 [Niraparib]",
    "unit.of.measurement": "%",
    "value.measured": 96.5
  }
]

I have this compound here, COc1cc2c(Nc3ccc(Br)cc3F)ncnc2cc1OCC1CCN(C)CC1 [Vandetanib] , and I need its recorded Freeze-Thaw Accuracy [%].
101.5

Cool, now COc1cc2ncnc(Nc3ccc(F)c(Cl)c3)c2cc1NC(=O)/C=C/CN1CCCCC1 [Dacomitinib]
95.9

Cool, now COC(=O)N[C@@H](C)CNc1nccc(-c2cn(C(C)C)nc2-c2cc(Cl)cc(NS(C)(=O)=O)c2F)n1 [Encorafenib]
101.4

Cool, now CS(=O)(=O)c1ccc(C(=O)Nc2ccc(Cl)c(-c3ccccn3)c2)c(Cl)c1 [Vismodegib]
103.2

Cool, now Cc1[nH]c2ccccc2c1CCNCc1ccc(/C=C/C(=O)NO)cc1 [Panobinostat]
98.8

Cool, now CS(=O)(=O)CCNCc1ccc(-c2ccc3ncnc(Nc4ccc(OCc5cccc(F)c5)c(Cl)c4)c3c2)o1 [Lapatinib]
102.3

Cool, now O=C(c1cc(Cc2n[nH]c(=O)c3ccccc23)ccc1F)N1CCN(C(=O)C2CC2)CC1 [Olaparib]
96.6

Cool, now Cc1ccc(C(=O)Nc2ccc(CN3CCN(C)CC3)c(C(F)(F)F)c2)cc1C#Cc1cnc2cccnn12 [Ponatinib]
99.3

Cool, now COc1cc2nccc(Oc3ccc(NC(=O)Nc4cc(C)on4)c(Cl)c3)c2cc1OC [Tivozanib]
99.9

====

As shown below, each of these compounds has a reported Autosampler (72h, 4°C) Accuracy [%] value.
experiment: Autosampler stability of ready for injection samples; format: physicochemical, human; conditions: validation standard LLOV
Supply the numeric figure in %, leaving out any unit text.

Below: 3 compounds and their reported Autosampler (72h, 4°C) Accuracy [%].
[
  {
    "compound": "N#CC[C@H](C1CCCC1)n1cc(-c2ncnc3[nH]ccc23)cn1",
    "unit.of.measurement": "%",
    "Autosampler (72h, 4°C) Accuracy [%]": 94.4
  },
  {
    "compound": "C#Cc1cccc(Nc2ncnc3cc(OCCOC)c(OCCOC)cc23)c1",
    "unit.of.measurement": "%",
    "Autosampler (72h, 4°C) Accuracy [%]": 103.9
  },
  {
    "compound": "CCc1cc2c(cc1N1CCC(N3CCOCC3)CC1)C(C)(C)c1[nH]c3cc(C#N)ccc3c1C2=O",
    "unit.of.measurement": "%",
    "Autosampler (72h, 4°C) Accuracy [%]": 93.7
  }
]

I have this compound here, Nc1cccc2c1C(=O)N(C1CCC(=O)NC1=O)C2=O (centres unmarked) [Pomalidomide] , and I need its recorded Autosampler (72h, 4°C) Accuracy [%].
96.5

Cool, now CNC(=O)c1ccc(N2C(=S)N(c3ccc(C#N)c(C(F)(F)F)c3)C(=O)C2(C)C)cc1F [Enzalutamide]
91.3

Cool, now COc1cc2nccc(Oc3ccc(NC(=O)NC4CC4)c(Cl)c3)c2cc1C(N)=O
103.7

Cool, now COC(=O)N[C@@H](C)CNc1nccc(-c2cn(C(C)C)nc2-c2cc(Cl)cc(NS(C)(=O)=O)c2F)n1
98.2

Cool, now CNC(=O)c1ccccc1Sc1ccc2c(/C=C/c3ccccn3)n[nH]c2c1
97.7

====

assay: Long-term stability in spiked pooled human plasma; conditions: validation standard 2xLLOV
As shown below, each of these molecules has a reported Long-term stability, 3 month, -80°C Accuracy [%] value.
Supply the numeric figure in %, leaving out any unit text.

[
  {
    "molecule": "CC1(C)CCC(CN2CCN(c3ccc(C(=O)NS(=O)(=O)c4ccc(NCC5CCOCC5)c([N+](=O)[O-])c4)c(Oc4cnc5[nH]ccc5c4)c3)CC2)=C(c2ccc(Cl)cc2)C1",
    "value.measured": 101.9
  },
  {
    "molecule": "Cc1c(C(=O)Nc2ccc(N3C[C@@H](C)O[C@@H](C)C3)nc2)cccc1-c1ccc(OC(F)(F)F)cc1",
    "value.measured": 104.6
  },
  {
    "molecule": "COC(=O)c1ccc2c(c1)NC(=O)/C2=C(\\Nc1ccc(N(C)C(=O)CN2CCN(C)CC2)cc1)c1ccccc1",
    "value.measured": 91.1
  },
  {
    "molecule": "CC(C)(C)c1nc(-c2cccc(NS(=O)(=O)c3c(F)cccc3F)c2F)c(-c2ccnc(N)n2)s1",
    "value.measured": 101.7
  },
  {
    "molecule": "Nc1cccc2c1C(=O)N(C1CCC(=O)NC1=O)C2=O (stereo not drawn) [Pomalidomide]",
    "value.measured": 97.4
  },
  {
    "molecule": "COc1cc(N2CCC(N3CCN(C)CC3)CC2)ccc1Nc1ncc(Cl)c(Nc2ccccc2P(C)(C)=O)n1",
    "value.measured": 99.0
  },
  {
    "molecule": "CS(=O)(=O)CCNCc1ccc(-c2ccc3ncnc(Nc4ccc(OCc5cccc(F)c5)c(Cl)c4)c3c2)o1",
    "value.measured": 96.3
  },
  {
    "molecule": "O=C(c1ccc(F)c(F)c1Nc1ccc(I)cc1F)N1CC(O)([C@@H]2CCCCN2)C1",
    "value.measured": 97.6
  }
]

I have this molecule here, Cc1ccc(Nc2nccc(N(C)c3ccc4c(C)n(C)nc4c3)n2)cc1S(N)(=O)=O , and I need its recorded Long-term stability, 3 month, -80°C Accuracy [%].
104.8

====

As shown below, each of these compounds has a reported Long-term stability, 2 month, -80°C Accuracy [%] value.
test: Long-term stability in spiked pooled human plasma; conditions: validation standard LLOV

[
  {
    "compound": "COc1cc2nccc(Oc3ccc(NC(=O)C4(C(=O)Nc5ccc(F)cc5)CC4)cc3)c2cc1OC [Cabozantinib]",
    "value.measured": "100.2%"
  },
  {
    "compound": "Cc1ccc(Nc2nccc(N(C)c3ccc4c(C)n(C)nc4c3)n2)cc1S(N)(=O)=O",
    "value.measured": "108.3%"
  },
  {
    "compound": "CN(C)C(=O)c1cc2cnc(Nc3ccc(N4CCNCC4)cn3)nc2n1C1CCCC1",
    "value.measured": "94.7%"
  },
  {
    "compound": "N#CC[C@H](C1CCCC1)n1cc(-c2ncnc3[nH]ccc23)cn1",
    "value.measured": "99.8%"
  },
  {
    "compound": "CCC1=C[C@@H]2CN(C1)Cc1c([nH]c3ccccc13)[C@@](C(=O)OC)(c1cc3c(cc1OC)N(C)[C@H]1[C@@](O)(C(=O)OC)[C@H](OC(C)=O)[C@]4(CC)C=CCN5CC[C@]31[C@@H]54)C2",
    "value.measured": "109.4%"
  },
  {
    "compound": "CNCc1ccc(-c2[nH]c3cc(F)cc4c3c2CCNC4=O)cc1",
    "value.measured": "112.2%"
  },
  {
    "compound": "Nc1cccc2c1C(=O)N(C1CCC(=O)NC1=O)C2=O (stereo not drawn) [Pomalidomide]",
    "value.measured": "99.9%"
  },
  {
    "compound": "C#Cc1cccc(Nc2ncnc3cc(OCCOC)c(OCCOC)cc23)c1",
    "value.measured": "114.8%"
  }
]

Consider the additional compound presented here.
I have this compound here, CCN1CCN(Cc2ccc(Nc3ncc(F)c(-c4cc(F)c5nc(C)n(C(C)C)c5c4)n3)nc2)CC1 , and I need its recorded Long-term stability, 2 month, -80°C Accuracy [%].
112.7%
